- assay_system: full-length recombinant human FYN A (Homo sapiens (Human))
- assay_remarks: ADP-Glo Kinase Assay of FYN kinase inhibition
- Format: biochemical
- experimental_setup: primary screen, initial compounds
Just a reminder that ties go to condition not met: only IC50 strictly below 7 µM counts as condition met.

Consider the worked cases shown below.
molecule | assay_system | cat
COc1ccccc1-c1ccc2ncc(-c3cccc(C(=O)NCCN(C)C)c3)n2n1 [Compound 469] | full-length recombinant human FYN A (Homo sapiens (Human)) | condition met
OCc1ccc(-c2ccnc3[nH]nc(-c4cccc(Cl)c4)c23)cc1 [Compound 526] | full-length recombinant human FYN A (Homo sapiens (Human)) | condition met

## Input Here's an entry: CCCNc1ccc2ncc(-c3ccc(OC)c(OC)c3)n2n1 [229_0226_0079] . Is its IC50 below 7 µM?
## Output condition met

## Input Here's an entry: Nc1cccc(-c2cncc(NCc3ccccc3)n2)c1 [035_0232_0005] . Is its IC50 below 7 µM?
## Output condition met

## Input Here's an entry: CNC(=O)c1cccc(-c2ccc3ncc(-c4ccc(CO)cc4)n3n2)c1 [Compound 488] . Is its IC50 below 7 µM?
## Output condition not met

* * *

- assay_system: full-length recombinant human FYN A (Homo sapiens (Human))
- assay_remarks: ADP-Glo Kinase Assay of FYN kinase inhibition
- Assay type: biochemical
- experimental_setup: primary screen, initial compounds
- Excerpt: The chemical library was comprised of the SoftFocus ATP-competitive hinge binding compounds described by Harris, C. J., Hill, R. D., Sheppard, D. W., et al., The Design and Application of Target-Focused Compound Libraries. Combinatorial Chemistry and High Throughput Screening 14:521-31 (2011). […]
Listed below: pIC50 values for each entry.
Please treat pIC50 as minus the base-10 logarithm of the molar concentration.

Record excerpt, results attached:
compound | readout_number
COc1cc(-c2cc(-c3cccc(O)c3)cnc2N)cc(OC)c1OC [382_0087_0284] | 6.14
COc1cc(-c2cnc3ccc(-c4cc(OC)c(OC)c(OC)c4)nn23)ccc1O [Compound 458] | 5.74

## Input Which pIC50 is listed for CC(=O)Nc1cc(-c2ccc(C(=O)N3CCOCC3)cc2)cn2c(-c3cccc(C(C)=O)c3)cnc12 [Compound 275] ?
## Output 5.69

## Input Which pIC50 is listed for COc1cncc(-c2cnc3sc(NCc4ccccc4)nn23)c1 [Compound 585] ?
## Output 6.46

* * *

- assay_system: full-length recombinant human FYN A (Homo sapiens (Human), UniProt P06241)
- Sequence (P06241 whole entry): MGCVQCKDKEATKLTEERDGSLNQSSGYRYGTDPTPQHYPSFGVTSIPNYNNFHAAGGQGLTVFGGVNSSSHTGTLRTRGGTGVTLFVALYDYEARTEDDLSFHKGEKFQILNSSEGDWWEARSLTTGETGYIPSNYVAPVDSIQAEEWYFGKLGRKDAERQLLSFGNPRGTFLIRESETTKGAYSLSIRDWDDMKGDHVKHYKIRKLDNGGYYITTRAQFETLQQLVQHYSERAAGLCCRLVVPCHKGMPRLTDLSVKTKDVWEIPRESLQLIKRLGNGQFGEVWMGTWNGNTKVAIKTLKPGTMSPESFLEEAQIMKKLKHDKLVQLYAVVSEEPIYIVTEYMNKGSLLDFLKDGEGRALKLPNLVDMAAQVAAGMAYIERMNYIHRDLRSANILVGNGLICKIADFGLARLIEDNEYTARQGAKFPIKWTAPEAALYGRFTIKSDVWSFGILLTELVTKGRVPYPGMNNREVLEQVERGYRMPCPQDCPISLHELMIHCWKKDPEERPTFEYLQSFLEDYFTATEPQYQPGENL
- assay_remarks: ADP-Glo Kinase Assay of FYN kinase inhibition
- Type: biochemical
- experimental_setup: primary screen, initial compounds
Listed below: pIC50 values for each entry.
Please treat pIC50 as minus the base-10 logarithm of the molar concentration.

Record excerpt, results attached:
molecule | readout_number
Nc1ncc(-c2ccc(N3CCOCC3)cc2)cc1-c1cccc(O)c1 [382_0284_0001] | 5.33
COc1cccc(Nc2cc3[nH]c(-c4cn[nH]c4)cc3cn2)c1 [Compound 309] | 4.78
c1ccc(Cn2c(-c3cccnc3)cc3cnc(Nc4ccncn4)cc32)cc1 [Compound 308] | 5.16
OCc1ccc(-c2ccc3ncc(-c4cccc(O)c4)n3n2)cc1 [Compound 363] | 6.54
CC(=O)c1cccc(-c2cnc3ccc(-c4cccs4)nn23)c1 [Compound 451] | 6.38

## Input Which pIC50 is listed for COc1cccc(Cn2c(=O)[nH]c3ncc(-c4cc(OC)c(OC)c(OC)c4)nc32)c1 [170_4313_0087] ?
## Output 4.63

## Input Which pIC50 is listed for CCCNc1ccc2ncc(-c3ccc(OC)cc3)n2n1 [229_0226_0280] ?
## Output 5.27

## Input Which pIC50 is listed for OCc1ccc(-c2cnc3ccc(-c4ccccc4)nn23)cc1 [Compound 418] ?
## Output 5.84

## Input Which pIC50 is listed for CCCN1CCc2nc(Nc3cc(OC)c(OC)c(OC)c3)ncc2C1 [582_9377_5632] ?
## Output 4.83

* * *

- assay_system: full-length recombinant human FYN A (Homo sapiens (Human))
- assay_remarks: ADP-Glo Kinase Assay of FYN kinase inhibition
- Type: biochemical
- experimental_setup: primary screen, initial compounds
readout: pIC50
Please treat pIC50 as minus the base-10 logarithm of the molar concentration.

molecular_string | readout_number
CCCNc1ccc2ncc(-c3cccc(NC(C)=O)c3)n2n1 | 6.20

## Input Which pIC50 is listed for "CC(C)[C@@H](CO)Nc1ccc2ncc(-c3ccc(N)cc3)n2n1" ?
## Output 5.52

## Input Which pIC50 is listed for "Oc1cccc(-c2ccc3ncc(-c4cccc(O)c4)n3n2)c1" ?
## Output 6.01

* * *

- assay_system: full-length recombinant human FYN A (Homo sapiens (Human), UniProt P06241)
- assay_remarks: ADP-Glo Kinase Assay of FYN kinase inhibition
- Assay type: biochemical
- experimental_setup: primary screen, initial compounds
readout: IC50 (µM)
API: value field is a number in µM; no unit string.

Record excerpt, results attached:
molecule | units_symbol | IC50
CN(C)CCNC(=O)c1cccc(-c2ccc3ncc(-c4cccc(OC(F)(F)F)c4)n3n2)c1 [Compound 448] | µM | 3.93
COc1cc(-c2cc(-c3cccc(C(N)=O)c3)cnc2N)cc(OC)c1OC [Compound 540] | µM | 0.442

## Input Which IC50 is listed for CNC(=O)c1cccc(-c2ccc3ncc(-c4ccc(OC)c(OC)c4)n3n2)c1 [Compound 408] ?
## Output 3.49

## Input Which IC50 is listed for Clc1ccc(-c2cnc3sc(NCc4cccnc4)nn23)cc1 [Compound 556] ?
## Output 3.66

## Input Which IC50 is listed for CC(=O)Nc1cccc(-c2cnc3ccc(-c4cccc(OC(F)(F)F)c4)nn23)c1 [Compound 276] ?
## Output 1.5

* * *

- assay_system: full-length recombinant human FYN A (Homo sapiens (Human))
- assay_remarks: ADP-Glo Kinase Assay of FYN kinase inhibition
- Format: biochemical
- experimental_setup: primary screen, initial compounds
readout: IC50 (nM)
API: value field is a number in nM; no unit string.

Record excerpt, results attached:
molecular_string | readout_number
Cc1cccc(Cc2ccc3ncc(-c4ccc(C(N)=O)cc4)n3n2)c1 | 3100
CC(=O)c1cccc(-c2cnc3ccc(-c4ccncc4)nn23)c1 | 371
CC(C)CNc1nn2c(-c3cccc(C(=O)N(C)C)c3)cnc2s1 | 283
COc1cc(-c2cc(-c3cccc(C(=O)NCCO)c3)cnc2N)cc(OC)c1OC | 485
COc1ccc(-c2ccc3ncc(-c4cccc(CO)c4)n3n2)cc1OC | 749

## Input Which IC50 is listed for "COc1cc(-c2cnc3cnc(-c4ccc(C(=O)NCCCN(C)C)cc4)cn23)ccc1O" ?
## Output 606

* * *

- assay_system: full-length recombinant human FYN A (Homo sapiens (Human), UniProt P06241)
- assay_remarks: ADP-Glo Kinase Assay of FYN kinase inhibition
- Format: biochemical
- experimental_setup: primary screen, initial compounds
Listed below: IC50 values for each entry.
API: value field is a number in nM; no unit string.

compound | units_symbol | IC50
COc1ccccc1-c1n[nH]c2nccc(-c3ccc(F)c(Cl)c3)c12 [Compound 490] | nM | 1280
CC(=O)Nc1cccc(-c2cnc3ccc(-c4ccc5c(c4)OCO5)nn23)c1 [Compound 273] | nM | 1170
COc1cccc(-c2cnc(N)c(-c3ccc(O)c(OC)c3)c2)c1 [382_0314_4140] | nM | 1200
COc1cccc(-c2cnc3ccc(NCC4CC4)nn23)c1 [229_4051_4140] | nM | 3300
c1cncc(-c2cnc3ccc(-c4ccoc4)nn23)c1 [Compound 410] | nM | 2350

## Input Which IC50 is listed for COc1ccc(-c2ccnc3[nH]nc(-c4cc(OC)c(OC)c(OC)c4)c23)cn1 [Compound 529] ?
## Output 16900

## Input Which IC50 is listed for COc1cncc(-c2cnc3sc(NCc4ccncc4)nn23)c1 [Compound 546] ?
## Output 932

* * *

Listed below: IC50 values for each entry.
- assay_system: full-length recombinant human FYN A (Homo sapiens (Human), UniProt P06241)
- assay_remarks: ADP-Glo Kinase Assay of FYN kinase inhibition
- Format: biochemical
- experimental_setup: primary screen, initial compounds
Write the quantity with the unit trailing the number.

Record excerpt, results attached:
molecular_string | readout | result
COCCNc1ccc2ncc(-c3ccsc3)n2n1 | IC50 | 5230 nM
CC(=O)Nc1cccc(-c2cnc3ccc(-c4cccc(Cl)c4)nn23)c1 | IC50 | 370 nM

With those in mind, consider the next compound.
## Input Which IC50 is listed for "c1cc(-c2cnc3ccc(NCc4ccc5c(c4)OCO5)nn23)ccn1" ?
## Output 380 nM

* * *

- assay_system: full-length recombinant human FYN A (Homo sapiens (Human))
- assay_remarks: ADP-Glo Kinase Assay of FYN kinase inhibition
- Format: biochemical
- experimental_setup: primary screen, initial compounds
readout: IC50 (µM)
API: value field is a number in µM; no unit string.

molecule | IC50 [µM]
COc1cc(-c2cnc3cnc(-c4ccc(NCCN5CCOCC5)nc4)cn23)ccc1O | 1.35

## Input Which IC50 is listed for "c1ccc(-c2cnc3ccc(-c4cccs4)nn23)cc1" ?
## Output 1.97

## Input Which IC50 is listed for "CCCNc1ccc2ncc(-c3ccc(C(=O)O)cc3)n2n1" ?
## Output 9.77

## Input Which IC50 is listed for CCC(CO)Nc1ccc2ncc(-c3cccs3)n2n1 (stereo not shown) ?
## Output 3.97

## Input Which IC50 is listed for "c1cc(-c2cnc3ccc(-c4ccc5c(c4)OCO5)nn23)ccn1" ?
## Output 0.217

## Input Which IC50 is listed for "CC(=O)Nc1ccc(-c2ccnc3[nH]nc(C4CC4)c23)cc1" ?
## Output 8.89

## Input Which IC50 is listed for "COc1cncc(-c2ccc3ncc(-c4cccc(NC(C)=O)c4)n3n2)c1" ?
## Output 0.614

## Input Which IC50 is listed for "COc1cc(-c2cnc3ccc(NCc4cccc(Cl)c4)nn23)ccc1O" ?
## Output 3.52

## Input Which IC50 is listed for "COc1cc(-c2cc(-c3ccc(N)cc3)cnc2N)cc(OC)c1OC" ?
## Output 0.971
